assay: ChromatoLogD; assay type: physicochemical
value kind: chromatographic logD

Asked: Which chromatographic logD value is on record for CC(=O)N1CC[C@@H](n2ncc(Cl)c2C(=O)Nc2ncc(C#Cc3ccc(F)cc3)cc2C)[C@H](F)C1 [Compound 11] ?
Given back: 3.9

Asked: Suppose we examine the compound Cc1cc(C#Cc2ccccc2)cnc1NC(=O)c1cc(C(=O)N2CC(F)(F)C2)ccc1Cl [Compound 13a] ; what chromatographic logD value has been reported?
Given back: 4.03

Asked: For the compound Cc1cc(C#Cc2ccccc2)cnc1NC(=O)c1cc(OCC2COCCO2)ccc1Cl (centres unmarked) [Compound 13c] , what chromatographic logD is on record?
Given back: 4.14

Asked: Looking for the measured chromatographic logD of CC(=O)N1CCC(n2ncc(Cl)c2C(=O)Nc2ncc(C#Cc3ccccc3)cc2C)CC1 [Compound 10] , can you help?
Given back: 3.8

Asked: Quick one: chromatographic logD for Cc1cc(C#Cc2ccccc2)cnc1NC(=O)c1cc(NC(=O)OC(C)(C)C)ccc1Cl [Compound 13e] ?
Given back: 5.15

Asked: Entry Cc1cc(C#Cc2ccccc2)cnc1NC(=O)c1cc(OC[C@H]2COCCO2)ccc1Cl [Compound 13d] has what chromatographic logD?
Given back: 4.14

Asked: Look up chromatographic logD for this compound: Cc1cc(C#Cc2ccccc2)cnc1NC(=O)c1cc(OC[C@@H]2COCCO2)ccc1Cl [Compound 7]
Given back: 4.14

Asked: Field request: chromatographic logD | item: Cc1cc(C#Cc2ccccc2)cnc1NC(=O)c1cc(-c2noc(C3CCOC3)n2)ccc1Cl (centres unmarked) [Compound 13b]
Given back: 5.01

----------
experiment: Plasma protein binding, rat; assay type: in vitro ADME; conditions: rat, plasma, pH 7.4, rat plasma, bound; read-out: PPB rat (converted)
Could you please report measured fraction unbound at 6 h, 5 µM for the items listed next?

Asked: # query: fraction unbound at 6 h, 5 µM of entry CC(=O)N[C@H]1CC[C@@H](n2ncc(Cl)c2C(=O)Nc2ncc(C#Cc3ccccc3)cc2C)CC1 [Compound 15f]
Given back: 0.016

Asked: What value of measured fraction unbound at 6 h, 5 µM is listed for "CC(=O)N1CC[C@@H](n2ncc(Cl)c2C(=O)Nc2ncc(C#Cc3ccc(F)cc3)cc2C)[C@H](F)C1" ?
Given back: 0.083

Asked: Quick one: fraction unbound at 6 h, 5 µM for CC(=O)N1C[C@H]2C[C@H](n3ncc(Cl)c3C(=O)Nc3ncc(C#Cc4ccccc4)cc3C)C[C@H]2C1 [Compound 15g] ?
Given back: 0.009

Asked: fraction unbound at 6 h, 5 µM for Cc1cc(C#Cc2ccccc2)cnc1NC(=O)c1c(Cl)cnn1[C@H]1CCOC1 [Compound 15a] ?
Given back: ~0.02

Asked: Looking for the measured fraction unbound at 6 h, 5 µM of Cc1cc(C#Cc2ccccc2)cnc1NC(=O)c1c(Cl)cnn1-c1ccc2c(cnn2C)c1 [Compound 15c] , can you help?
Given back: 0.002

Asked: If you can, please state the reported fraction unbound at 6 h, 5 µM value of "CC(=O)N1CCC(n2ncc(Cl)c2C(=O)Nc2ncc(C#Cc3ccccc3)cc2C)CC1" .
Given back: 0.013

----------
Exercise: for every item that follows, state its recorded fraction unbound at 6 h, 5 µM.
assay: Plasma protein binding, human (equilibrium dialysis); assay type: in vitro ADME; details: pH 7.4, read-out: PPB human (converted)
// return just the number, without any unit appended

Asked: Recorded fraction unbound at 6 h, 5 µM for CC(=O)N[C@H]1CC[C@@H](n2ncc(Cl)c2C(=O)Nc2ncc(C#Cc3ccccc3)cc2C)CC1 [Compound 15f] , please?
Given back: 0.012

Asked: Any idea what fraction unbound at 6 h, 5 µM was measured for "CC(=O)N1CCC(n2ncc(Cl)c2C(=O)Nc2ncc(C#Cc3ccccc3)cc2C)CC1" ?
Given back: 0.01

Asked: Can you share its fraction unbound at 6 h, 5 µM? I mean this compound: "CC(=O)N1CC[C@@H](n2ncc(Cl)c2C(=O)Nc2ncc(C#Cc3ccc(F)cc3)cc2C)[C@H](F)C1"
Given back: 0.048

Asked: I have this compound here, CC(=O)N1CC(F)(Cn2ncc(Cl)c2C(=O)Nc2ncc(C#Cc3ccccc3)cc2C)C1 [Compound 15e] , and I need its recorded fraction unbound at 6 h, 5 µM.
Given back: 0.039

----------
target: CYP 2D6 (Homo sapiens)
Sequence (P10635 whole entry): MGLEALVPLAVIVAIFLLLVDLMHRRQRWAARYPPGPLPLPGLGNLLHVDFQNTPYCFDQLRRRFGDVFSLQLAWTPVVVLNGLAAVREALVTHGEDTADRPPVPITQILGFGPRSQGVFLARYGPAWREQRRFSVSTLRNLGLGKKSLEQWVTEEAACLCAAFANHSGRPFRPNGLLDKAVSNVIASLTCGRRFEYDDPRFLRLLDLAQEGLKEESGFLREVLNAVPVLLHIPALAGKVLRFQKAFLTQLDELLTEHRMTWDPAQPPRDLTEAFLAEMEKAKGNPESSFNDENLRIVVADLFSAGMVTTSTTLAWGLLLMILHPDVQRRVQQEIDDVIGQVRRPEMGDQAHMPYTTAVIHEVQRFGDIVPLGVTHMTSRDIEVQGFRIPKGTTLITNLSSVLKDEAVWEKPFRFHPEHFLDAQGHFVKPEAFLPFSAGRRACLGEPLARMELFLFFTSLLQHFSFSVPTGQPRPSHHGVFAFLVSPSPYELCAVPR
Give measured pIC50 for each item. Keep answers brief.
Value format note: pIC50 is -log10 of concentration (mol/L); just state the number.

Asked: What reported pIC50 corresponds to "CC(=O)N1CC[C@@H](n2ncc(Cl)c2C(=O)Nc2ncc(C#Cc3ccc(F)cc3)cc2C)[C@H](F)C1" on CYP 2D6 (Homo sapiens)?
Given back: 5.15

Asked: Param readout = pIC50; param system = CYP 2D6 (Homo sapiens); param query = "CC(=O)N1CCC(n2ncc(Cl)c2C(=O)Nc2ncc(C#Cc3ccccc3)cc2C)CC1" ; response: value
Given back: 4.99

----------
value kind: IC50 (nM)
Output spec: scalar in nM, unitless text.

Asked: Request - read-out IC50 | tested on dopamine transporter DAT (Homo sapiens, UniProt Q01959) | compound CC(=O)N1CCC(n2ncc(Cl)c2C(=O)Nc2ncc(C#Cc3ccccc3)cc2C)CC1 [Compound 10]
Given back: 2860

----------
Would you mind telling me the reported Kp at 15 min of each entry?
test: Rat brain to plasma ratio (Kp, Kp,uu); type: in vivo; settings: male, Sprague Dawley, brain and plasma, intravenous, 0.2 mg/kg; rat brain:plasma

Asked: # lookup: Kp at 15 min of Cc1cc(C#Cc2ccccc2)cnc1NC(=O)c1cc(OCC2COCCO2)ccc1Cl (stereo not shown) [Compound 13c]
Given back: 0.89

Asked: Can you share its Kp at 15 min? I mean this compound: Cc1cc(C#Cc2ccccc2)cnc1NC(=O)c1cc(C(=O)N2CC(F)(F)C2)ccc1Cl [Compound 13a]
Given back: 0.84

Asked: Which Kp at 15 min is reported for this compound? CC(=O)N1CC[C@@H](n2ncc(Cl)c2C(=O)Nc2ncc(C#Cc3ccc(F)cc3)cc2C)[C@H](F)C1 [Compound 11]
Given back: 1.5

Asked: // lookup Kp at 15 min for Cc1cc(C#Cc2ccccc2)cnc1NC(=O)c1c(Cl)cnn1[C@H]1CCOC1 [Compound 15a]
Given back: 2.8

Asked: Look up Kp at 15 min: CC(=O)N[C@H]1CC[C@@H](n2ncc(Cl)c2C(=O)Nc2ncc(C#Cc3ccccc3)cc2C)CC1 [Compound 15f]
Given back: 0.97

Asked: Form field: reported Kp at 15 min of Cc1cc(C#Cc2ccccc2)cnc1NC(=O)c1cc(OC[C@@H]2COCCO2)ccc1Cl [Compound 7]
Given back: 0.86

Asked: Field request: Kp at 15 min | item: CC(=O)N1CCC(n2ncc(Cl)c2C(=O)Nc2ncc(C#Cc3ccccc3)cc2C)CC1 [Compound 10]
Given back: 2.7

----------
Molecular target: mouse TREK-1 (mTREK-1) (Mus musculus)
Sequence (P97438 1-426): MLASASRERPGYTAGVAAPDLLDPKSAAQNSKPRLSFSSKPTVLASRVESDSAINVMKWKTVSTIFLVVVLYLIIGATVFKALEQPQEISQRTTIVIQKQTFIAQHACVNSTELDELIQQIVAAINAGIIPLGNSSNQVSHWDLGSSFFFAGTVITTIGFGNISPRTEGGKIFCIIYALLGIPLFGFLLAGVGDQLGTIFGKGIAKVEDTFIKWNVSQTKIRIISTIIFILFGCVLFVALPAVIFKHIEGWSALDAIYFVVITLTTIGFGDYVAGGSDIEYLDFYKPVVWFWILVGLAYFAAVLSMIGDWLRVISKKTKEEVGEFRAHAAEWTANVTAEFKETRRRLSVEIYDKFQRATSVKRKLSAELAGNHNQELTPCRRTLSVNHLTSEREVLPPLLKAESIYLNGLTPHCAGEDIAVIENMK
Experiment: mTREK-1 manual patch clamp assay
Settings: mouse TREK-1, manual patch clamp; read-out: TREK-1 IC50 (mouse, MPC)
Exercise: for every item that follows, state its recorded IC50.
The reply should contain only the number, in nM.

Asked: Can you share its IC50? I mean this compound: "CC(=O)N1CC[C@@H](n2ncc(Cl)c2C(=O)Nc2ncc(C#Cc3ccc(F)cc3)cc2C)[C@H](F)C1"
Given back: 760

Asked: Quick one: IC50 of "Cc1cc(C#Cc2ccccc2)cnc1NC(=O)c1cc(OC[C@@H]2COCCO2)ccc1Cl" ?
Given back: 170

Asked: Would you mind telling me what IC50 value was observed for Cc1cc(C#Cc2ccccc2)cnc1NC(=O)c1cc(OC[C@H]2COCCO2)ccc1Cl [Compound 13d] ?
Given back: 1200

Asked: I have this compound here, "CC(=O)N1CCC(n2ncc(Cl)c2C(=O)Nc2ncc(C#Cc3ccccc3)cc2C)CC1" , and I need its recorded IC50.
Given back: 67

----------
target: A3 (Homo sapiens); assay: Functional assay, adenosine A3
Sequence (P0DMS8 whole entry): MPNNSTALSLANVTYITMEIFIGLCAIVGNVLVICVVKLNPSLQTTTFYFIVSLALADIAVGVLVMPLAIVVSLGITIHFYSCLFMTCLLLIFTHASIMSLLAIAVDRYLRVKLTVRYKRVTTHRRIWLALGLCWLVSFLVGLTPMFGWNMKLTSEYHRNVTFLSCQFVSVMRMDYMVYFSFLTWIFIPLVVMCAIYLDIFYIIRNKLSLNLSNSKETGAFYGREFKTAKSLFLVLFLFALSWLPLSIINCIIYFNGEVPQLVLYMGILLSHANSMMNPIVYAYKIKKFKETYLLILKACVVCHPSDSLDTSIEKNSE
Hi there, I'd appreciate the recorded pIC50 for every entry that follows.
pIC50 field: float, defined as -log10 of concentration (mol/L).

Asked: So what's the measured pIC50 for this one? "CC(=O)N1CC[C@@H](n2ncc(Cl)c2C(=O)Nc2ncc(C#Cc3ccc(F)cc3)cc2C)[C@H](F)C1"
Given back: 4.70

Asked: Returns the measured pIC50 for the input molecule. Input: "CC(=O)N1CCC(n2ncc(Cl)c2C(=O)Nc2ncc(C#Cc3ccccc3)cc2C)CC1"
Given back: 5.27

Entry source: paper PMC12621189
